Source: ChEMBL document CHEMBL1122166

Biological target: Adrenergic receptor beta (Homo sapiens) (UniProt P08588+P07550+P13945)
Assay: In vivo beta adrenergic receptor blocking potency was determined by inhibition of tachycardia produced by isoproterenol (0.2 mg/kg iv) in cat preparation
Format: functional, organism-based
Settings: Felis catus; target entry is the homologue from another species; in the assay text read “0.2 µg/kg iv” for “0.2 mg/kg iv”
test readout: ED50 (mg/kg)

Examples with their reported ED50 follow.
molecule	unit info	ED50
O=C(NCCNCC(O)COc1ccccc1)C1CCCCC1 (configuration not stated)	mg/kg	0.02
CC(CNC(=O)Cc1ccccc1Cl)NCC(O)COc1ccccc1[N+](=O)[O-] (configuration not stated)	mg/kg	0.007

(A) CC(C)C(=O)NCCNCC(O)COc1ccccc1[N+](=O)[O-] (configuration not stated)
(B) O=C(NCCNCC(O)COc1ccccc1)C1CC1 (configuration not stated)
(C) O=C(NCCNCC(O)COc1ccccc1Cl)Nc1ccccc1 (configuration not stated)
(D) CN(C)c1ccccc1C(=O)NCCNCC(O)COc1ccccc1 (configuration not stated)
(E) CC(C)C(=O)NCC(C)(C)NCC(O)COc1ccccc1 (configuration not stated)
Rank order required: ED50, descending. Please list each label once, in the requested order.
D, C, B, A, E
(D: 0.465 mg/kg, C: 0.037 mg/kg, B: 0.022 mg/kg, A: 0.006 mg/kg, E: 0.003 mg/kg)
